assay: Solubility of compound of Chemical Formula 1 in various solvents; assay type: physicochemical; conditions: organic solvent or mixture; Toluene, 25° C.; read-out: Solubility
Quantity Measured: solubility (µg/mL)
Give a bare numeral; the unit µg/mL is implied.

Lookup: Respond only with solubility recorded for O=S1(=O)CCN(Cc2cc(NC3CCOCC3)c3[nH]c(-c4ccccc4)cc3c2)CC1 [compound of Chemical Formula 1]
Found: 20

* * *

assay: Solubility of compound of Chemical Formula 1 in various solvents; format: physicochemical; conditions: organic solvent or mixture; Methanol (MeOH), 50° C.; read-out: Solubility
Quantity Measured: solubility (µg/mL)
// return numeric value only (unit: µg/mL, not printed)

Lookup: For `O=S1(=O)CCN(Cc2cc(NC3CCOCC3)c3[nH]c(-c4ccccc4)cc3c2)CC1` , write its solubility.
Found: 1150
